system: CAF#4 (primary prostate cancer-associated fibroblasts of iCAF-like type); assay: drug sensitivity score (DSS2, normalised partial AUC of dose-response, 72 h CellTiter-Glo viability) (DSS (dimensionless)); higher = more sensitive (stronger growth inhibition / cytotoxicity); extreme values may be limits of the assay

{"columns": ["molecule", "drug sensitivity score"],
 "data": [
  ["Cc1noc2c1-c1ccccc1C(c1ccc(Cl)cc1)=N[C@H]2CC(N)=O [CPI-0610] (tested concentration range 1-10000 nM)", 1.4],
  ["COc1cc(Nc2c(C#N)cnc3cc(OCCCN4CCN(C)CC4)c(OC)cc23)c(Cl)cc1Cl [Bosutinib] (tested concentration range 1-10000 nM)", 5.8],
  ["O=c1ncn2nc(Sc3ccc(F)cc3F)ccc2c1-c1c(Cl)cccc1Cl [Neflamapimod] (tested concentration range 1-10000 nM)", 0],
  ["CS(=O)(=O)c1ccc(C(=O)Nc2ccc(Cl)c(-c3ccccn3)c2)c(Cl)c1 [Vismodegib] (tested concentration range 1-10000 nM)", 0],
  ["CCNC(=O)C[C@@H]1N=C(c2ccc(Cl)cc2)c2cc(OC)ccc2-n2c(C)nnc21 [Molibresib] (tested concentration range 1-10000 nM)", 3.8],
  ["COc1cccc(OCCCN)c1-c1cc(Nc2cnc(C#N)cn2)n[nH]1 [Prexasertib] (tested concentration range 1-10000 nM)", 8.7]
]}

---

Measured drug sensitivity score accompanies every entry in the list below.
system: CAF#4; assay: drug sensitivity score (DSS2, normalised partial AUC of dose-response, 72 h CellTiter-Glo viability) (DSS (dimensionless)); higher = more sensitive (stronger growth inhibition / cytotoxicity); extreme values may be limits of the assay
endpoint_name: drug sensitivity score

{"columns": ["compound", "measured"],
 "data": [
  ["CCNC(=O)CCC/C=C\\C[C@@H]1[C@@H](/C=C/[C@@H](O)CCc2ccccc2)[C@H](O)C[C@@H]1O [Bimatoprost] (tested concentration range 0.6-5500 nM)", 0],
  ["Cc1sc2c(c1C)C(c1ccc(Cl)cc1)=N[C@@H](CC(=O)NCCCCNC(=O)COc1cccc3c1C(=O)N(C1CCC(=O)NC1=O)C3=O)c1nnc(C)n1-2 (stereo partly drawn) [dBET1] (tested concentration range 1-10000 nM)", 6.3],
  ["Cn1cncc1[C@@](N)(c1ccc(Cl)cc1)c1ccc2c(c1)c(-c1cccc(Cl)c1)cc(=O)n2C [Tipifarnib] (tested concentration range 1-10000 nM)", 7]
]}

---

# Lookup of reported drug sensitivity score keyed by entry
tested on: CAF#3 (primary prostate cancer-associated fibroblasts of myCAF-like type); test: drug sensitivity score (DSS2, normalised partial AUC of dose-response, 72 h CellTiter-Glo viability) (DSS (dimensionless)); higher = more sensitive (stronger growth inhibition / cytotoxicity); extreme values may be limits of the assay

{"columns": ["compound", "drug sensitivity score"],
 "data": [
  ["CC(=O)c1cc2c(o1)C(=O)c1ccccc1C2=O [Napabucasin] (tested concentration range 2-20000 nM)", 16.4],
  ["FC(F)(F)c1ccc(CNc2ccc(Cc3c[nH]c4ncc(Cl)cc34)cn2)cn1 [Pexidartinib] (tested concentration range 1-10000 nM)", 1.2],
  ["C[C@@H]1CN(Cc2ccc(F)cc2)[C@@H](C)CN1C(=O)c1cc2c(C(=O)C(=O)N(C)C)cn(C)c2cc1Cl [Talmapimod] (tested concentration range 1-10000 nM)", 0],
  ["CC1(C)CCC(c2ccc(Cl)cc2)=C(CN2CCN(c3ccc(C(=O)NS(=O)(=O)c4ccc(N[C@H](CCN5CCOCC5)CSc5ccccc5)c(S(=O)(=O)C(F)(F)F)c4)cc3)CC2)C1 [Navitoclax] (tested concentration range 1-10000 nM)", 0],
  ["CN1CCN(c2ccc3nc(-c4c(N)c5c(F)cccc5[nH]c4=O)[nH]c3c2)CC1 [Dovitinib] (tested concentration range 1-10000 nM)", 0.7],
  ["Oc1nc(-c2ccc(C(F)(F)F)cc2)nc2c1CSCC2 [XAV-939] (tested concentration range 1-10000 nM)", 2.5]
]}

Entry source: the supplement of paper PMC12592484
